Value source: patent US20090192048A1

Assay: Retention of peptides on Greiner polystyrene V-bottom wells
Assay type: physicochemical
Conditions: 400V scan, unwashed
Ends that are not written are not given here.
outcomeMeasure: Untreated fluorescence

N-TAMRA-Asp-Ser- Asp-Ser-Asp-Ser- Asp-C ({TAMRA}-DSDSDSD) [Peptide 2DOS-15] :: 868,334
N-TAMRA-Ser-Asp- Ser-Asp-Ser-Asp- Ser-Asp-Ser-C ({TAMRA}-SDSDSDSDS) [Peptide 2DOS-11] :: 675,269
N-TAMPA-Asp-Asp- Asp-Asp-Asp-Asp- Asp-C ({TAMRA}-DDDDDDD) [Peptide 2DOS-16] :: 789,858
N-TAMRA-Asp-Ser- Ala-Ser-Ser-Ser- Lys-C ({TAMRA}-DSASSSK) [Peptide 2DOS-7] :: 706,200
N-TAMRA-Phe-Asp- Phe-Asp-Phe-Asp- Phe-Asp-Phe-C ({TAMRA}-FDFDFDFDF) [Peptide 2DOS-10] :: 602,771
N-TAMRA-Phe-Asp- Phe-Ala-Phe-Ser- Phe-Lys-Phe-C ({TAMRA}-FDFAFSFKF) [Peptide 2DOS-2] :: 614,203
N-TAMPA-Asp-Asp- Asp-Asp-Asp-Asp- Asp-Asp-Asp-C ({TAMRA}-DDDDDDDDD) [Peptide 2DOS-12] :: 684,832
N-TAMPA-Asp-Asp- Ala-Asp-Ser-Asp- Lys-C ({TAMRA}-DDADSDK) [Peptide 2DOS-8] :: 842,984
N-TAMRA-Ser-Asp- Ser-Ala-Ser-Ser- Ser-Lys-Ser-C ({TAMRA}-SDSASSSKS) [Peptide 2DOS-3] :: 744,747
N-TAMRA-Asp-Phe- Ala-Phe-Ser-Phe- Lys-C ({TAMRA}-DFAFSFK) [Peptide 2DOS-6] :: 666,352
N-TAMRA-Asp-Phe- Asp-Phe-Asp-Phe- Asp-C ({TAMRA}-DFDFDFD) [Peptide 2DOS-14] :: 860,811
N-TAMPA-Asp-Asp- Asp-Ala-Asp-Ser- Asp-Lys-Asp-C ({TAMRA}-DDDADSDKD) [Peptide 2DOS-4] :: 783,885

====

Assay: Retention of peptides on Costar polypropylene V-bottom wells
Format: physicochemical
Details: 400V scan, unwashed
Ends that are not written are not given here.
The reader will find reported Untreated fluorescence values listed item by item below.
outcomeMeasure: Untreated fluorescence

N-TAMRA-Phe-Asp- Phe-Ala-Phe-Ser- Phe-Lys-Phe-C ({TAMRA}-FDFAFSFKF) [Peptide 2DOS-2] :: 5,692,134
N-TAMPA-Asp-Asp- Ala-Asp-Ser-Asp- Lys-C ({TAMRA}-DDADSDK) [Peptide 2DOS-8] :: 6,587,741
N-TAMPA-Asp-Asp- Asp-Asp-Asp-Asp- Asp-Asp-Asp-C ({TAMRA}-DDDDDDDDD) [Peptide 2DOS-12] :: 4,432,090
N-TAMRA-Ser-Asp- Ser-Ala-Ser-Ser- Ser-Lys-Ser-C ({TAMRA}-SDSASSSKS) [Peptide 2DOS-3] :: 5,660,618
N-TAMRA-Asp-Ser- Asp-Ser-Asp-Ser- Asp-C ({TAMRA}-DSDSDSD) [Peptide 2DOS-15] :: 6,488,130
N-TAMRA-Phe-Asp- Phe-Asp-Phe-Asp- Phe-Asp-Phe-C ({TAMRA}-FDFDFDFDF) [Peptide 2DOS-10] :: 6,043,214
N-TAMRA-Asp-Ser- Ala-Ser-Ser-Ser- Lys-C ({TAMRA}-DSASSSK) [Peptide 2DOS-7] :: 5,139,578

====

Assay: Retention of peptides P1-1 to P1-5 on a polypropylene sheet after successive washes
Format: physicochemical
Conditions: after third wash scan; unwashed control array; background subtracted
Ends that are not written are not given here.
The reader will find reported Corrected signal, control array values listed item by item below.
outcomeMeasure: Corrected signal, control array

TAMRA-F-G-F-G-F-S-F-A-F-D-F-G-F ({TAMRA}-FGFGFSFAFDFGF) [Peptide P1-2] :: 51,820,628
TAMRA-F-G-F-S-F-A-F-D-F-G-F ({TAMRA}-FGFSFAFDFGF) [Peptide P1-1] :: 84,434,769
TAMRA-F-G-F-G-F-G-F-S-F-A-F-D-F-G-F ({TAMRA}-FGFGFGFSFAFDFGF) [Peptide P1-3] :: 50,311,907
TAMRA-F-G-F-G-F-G-F-G-F-S-F-A-F-D-F-G-F ({TAMRA}-FGFGFGFGFSFAFDFGF) [Peptide P1-4] :: 42,195,247
TAMRA-F-G-F-G-F-G-F-G-F-G-F-S-F-A-F-D-F-G-F ({TAMRA}-FGFGFGFGFGFSFAFDFGF) [Peptide P1-5] :: 49,585,053

====

The reader will find reported Percent retention values listed item by item below.
Experiment: Retention of peptides on Greiner polystyrene V-bottom wells
Assay type: physicochemical
Details: 400V scan
Description: The retention of peptides 2DOS-1 to 2DOS-16 (see above) on polypropylene and polystyrene surfaces was compared: 5 mM tris-HCl (pH 8.0) in 75% (v/v) aqueous acetonitrile was used as the solvent for the peptides and for TAMRA. […] The fluorescence images were analysed using ImageQuant TL v2003.03 (Amersham Biosciences).
Ends that are not written are not given here.
outcomeMeasure: Percent retention (%)

N-TAMRA-Phe-Asp- Phe-Asp-Phe-Asp- Phe-Asp-Phe-C ({TAMRA}-FDFDFDFDF) [Peptide 2DOS-10] :: 17
N-TAMPA-Asp-Asp- Ala-Asp-Ser-Asp- Lys-C ({TAMRA}-DDADSDK) [Peptide 2DOS-8] :: 1
N-TAMRA-Ser-Asp- Ser-Asp-Ser-Asp- Ser-Asp-Ser-C ({TAMRA}-SDSDSDSDS) [Peptide 2DOS-11] :: 1
N-TAMRA-Asp-Ser- Asp-Ser-Asp-Ser- Asp-C ({TAMRA}-DSDSDSD) [Peptide 2DOS-15] :: 1
N-TAMRA-Asp-Phe- Asp-Phe-Asp-Phe- Asp-C ({TAMRA}-DFDFDFD) [Peptide 2DOS-14] :: 9

====

The reader will find reported Recovered fluorescence (×10^3) values listed item by item below.
Assay: Retention of peptides 2DOS-1 to 2DOS-16 on a hydrophobic surface (polypropylene microtitre plate wells), water wash
Format: physicochemical
Conditions: 400V scan; dried, washed ten times with 250 μl water, resuspended
Ends that are not written are not given here.
outcomeMeasure: Recovered fluorescence (×10^3)

N-TAMRA-Asp-Phe- Ala-Phe-Ser-Phe- Lys-C ({TAMRA}-DFAFSFK) [Peptide 2DOS-6] :: 1,455 ×10^3
N-TAMPA-Asp-Asp- Asp-Ala-Asp-Ser- Asp-Lys-Asp-C ({TAMRA}-DDDADSDKD) [Peptide 2DOS-4] :: 0 ×10^3
N-TAMRA-Phe-Asp- Phe-Asp-Phe-Asp- Phe-Asp-Phe-C ({TAMRA}-FDFDFDFDF) [Peptide 2DOS-10] :: 2,884 ×10^3
N-TAMPA-Asp-Asp- Ala-Asp-Ser-Asp- Lys-C ({TAMRA}-DDADSDK) [Peptide 2DOS-8] :: 3 ×10^3

====

Test: Retention of peptides on Greiner polystyrene V-bottom wells
Assay type: physicochemical
Details: 400V scan
Ends that are not written are not given here.
The reader will find reported Percent retention values listed item by item below.
outcomeMeasure: Percent retention

N-TAMRA-Asp-Phe- Ala-Phe-Ser-Phe- Lys-C ({TAMRA}-DFAFSFK) [Peptide 2DOS-6] :: 25%
N-TAMRA-Asp-Ser- Ala-Ser-Ser-Ser- Lys-C ({TAMRA}-DSASSSK) [Peptide 2DOS-7] :: 2%
N-TAMRA-Ser-Asp- Ser-Ala-Ser-Ser- Ser-Lys-Ser-C ({TAMRA}-SDSASSSKS) [Peptide 2DOS-3] :: 5%
N-TAMPA-Asp-Asp- Asp-Ala-Asp-Ser- Asp-Lys-Asp-C ({TAMRA}-DDDADSDKD) [Peptide 2DOS-4] :: 1%
N-TAMRA-Phe-Asp- Phe-Ala-Phe-Ser- Phe-Lys-Phe-C ({TAMRA}-FDFAFSFKF) [Peptide 2DOS-2] :: 64%
N-TAMPA-Asp-Asp- Asp-Asp-Asp-Asp- Asp-C ({TAMRA}-DDDDDDD) [Peptide 2DOS-16] :: 0%
N-TAMPA-Asp-Asp- Asp-Asp-Asp-Asp- Asp-Asp-Asp-C ({TAMRA}-DDDDDDDDD) [Peptide 2DOS-12] :: 1%

====

The reader will find reported Retained fluorescence values listed item by item below.
Test: Retention of peptides on Greiner polystyrene V-bottom wells
Type: physicochemical
Conditions: 400V scan, washed 15 minutes in 1 M NaCl in 10 mM tris-HCl (pH 8.0)
Ends that are not written are not given here.
outcomeMeasure: Retained fluorescence

N-TAMRA-Ser-Asp- Ser-Asp-Ser-Asp- Ser-Asp-Ser-C ({TAMRA}-SDSDSDSDS) [Peptide 2DOS-11] :: 7,365
N-TAMRA-Asp-Ser- Asp-Ser-Asp-Ser- Asp-C ({TAMRA}-DSDSDSD) [Peptide 2DOS-15] :: 5,116
N-TAMPA-Asp-Asp- Asp-Ala-Asp-Ser- Asp-Lys-Asp-C ({TAMRA}-DDDADSDKD) [Peptide 2DOS-4] :: 6,714
N-TAMRA-Phe-Asp- Phe-Ala-Phe-Ser- Phe-Lys-Phe-C ({TAMRA}-FDFAFSFKF) [Peptide 2DOS-2] :: 392,422
N-TAMPA-Asp-Asp- Asp-Asp-Asp-Asp- Asp-C ({TAMRA}-DDDDDDD) [Peptide 2DOS-16] :: 3,864
N-TAMRA-Asp-Phe- Asp-Phe-Asp-Phe- Asp-C ({TAMRA}-DFDFDFD) [Peptide 2DOS-14] :: 75,304
N-TAMRA-Asp-Phe- Ala-Phe-Ser-Phe- Lys-C ({TAMRA}-DFAFSFK) [Peptide 2DOS-6] :: 167,118
N-TAMRA-Asp-Ser- Ala-Ser-Ser-Ser- Lys-C ({TAMRA}-DSASSSK) [Peptide 2DOS-7] :: 15,766
N-TAMRA-Phe-Asp- Phe-Asp-Phe-Asp- Phe-Asp-Phe-C ({TAMRA}-FDFDFDFDF) [Peptide 2DOS-10] :: 100,265
N-TAMRA-Ser-Asp- Ser-Ala-Ser-Ser- Ser-Lys-Ser-C ({TAMRA}-SDSASSSKS) [Peptide 2DOS-3] :: 37,388
N-TAMPA-Asp-Asp- Ala-Asp-Ser-Asp- Lys-C ({TAMRA}-DDADSDK) [Peptide 2DOS-8] :: 5,071
N-TAMPA-Asp-Asp- Asp-Asp-Asp-Asp- Asp-Asp-Asp-C ({TAMRA}-DDDDDDDDD) [Peptide 2DOS-12] :: 3,788
